target: human xanthine oxidase (Homo sapiens, UniProt P47989)
Sequence (P47989 whole entry): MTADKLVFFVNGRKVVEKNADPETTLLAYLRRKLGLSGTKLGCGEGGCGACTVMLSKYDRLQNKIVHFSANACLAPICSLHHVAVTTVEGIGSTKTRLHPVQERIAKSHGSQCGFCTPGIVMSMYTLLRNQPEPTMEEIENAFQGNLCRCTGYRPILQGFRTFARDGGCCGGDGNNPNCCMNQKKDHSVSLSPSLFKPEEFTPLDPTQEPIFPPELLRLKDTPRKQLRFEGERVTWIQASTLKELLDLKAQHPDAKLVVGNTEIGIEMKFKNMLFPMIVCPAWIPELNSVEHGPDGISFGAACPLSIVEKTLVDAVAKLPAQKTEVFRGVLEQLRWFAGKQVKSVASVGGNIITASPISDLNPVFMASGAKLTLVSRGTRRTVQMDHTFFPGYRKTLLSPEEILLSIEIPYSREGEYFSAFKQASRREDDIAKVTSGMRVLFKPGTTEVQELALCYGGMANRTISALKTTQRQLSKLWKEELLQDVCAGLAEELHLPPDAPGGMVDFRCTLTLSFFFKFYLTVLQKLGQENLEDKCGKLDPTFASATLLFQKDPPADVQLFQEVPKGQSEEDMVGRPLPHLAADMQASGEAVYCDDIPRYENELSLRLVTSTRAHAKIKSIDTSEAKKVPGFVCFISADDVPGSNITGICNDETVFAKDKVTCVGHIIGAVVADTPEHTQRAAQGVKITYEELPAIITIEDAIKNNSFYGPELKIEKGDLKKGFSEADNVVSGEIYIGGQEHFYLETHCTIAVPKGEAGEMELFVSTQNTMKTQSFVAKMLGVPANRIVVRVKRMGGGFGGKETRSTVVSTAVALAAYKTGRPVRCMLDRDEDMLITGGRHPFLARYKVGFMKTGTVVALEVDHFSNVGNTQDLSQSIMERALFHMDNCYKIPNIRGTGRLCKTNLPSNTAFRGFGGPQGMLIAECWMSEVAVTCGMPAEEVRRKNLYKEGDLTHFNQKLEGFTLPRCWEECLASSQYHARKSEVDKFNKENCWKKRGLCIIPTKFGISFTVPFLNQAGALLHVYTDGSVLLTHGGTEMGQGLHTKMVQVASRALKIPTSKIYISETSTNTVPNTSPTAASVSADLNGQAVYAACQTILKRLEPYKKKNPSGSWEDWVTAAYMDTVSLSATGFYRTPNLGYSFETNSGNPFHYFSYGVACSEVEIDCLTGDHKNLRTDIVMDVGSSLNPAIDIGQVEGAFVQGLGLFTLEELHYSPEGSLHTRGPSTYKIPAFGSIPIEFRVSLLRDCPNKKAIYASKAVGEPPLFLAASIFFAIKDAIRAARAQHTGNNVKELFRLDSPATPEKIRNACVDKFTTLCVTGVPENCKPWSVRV
assay_metric: IC50 (µM)

(1) COc1ccc([C@@H]2CC(=O)c3c(OC)cc(OC(=O)c4ccccc4S)cc3O2)cc1OC [HET2]
(2) COc1ccc([C@@H]2CC(=O)c3c(OC)cc(OC(=O)c4cccnc4)cc3O2)cc1OC [HET5]
Qu. Hey, between 1 and 2 which has a smaller measured IC50? # answer = label of selected item
Ans. 2

(P) COc1ccc([C@@H]2CC(=O)c3c(OC)cc(OC(=O)C(O)c4ccccc4)cc3O2)cc1OC (stereo partly drawn) [HET3]
(Q) COc1ccc([C@@H]2CC(=O)c3c(O)cc(O)cc3O2)cc1O [Hesperitin]
Qu. When P and Q are compared, which has the higher number for IC50? # answer = label of selected item
Ans. Q
(Q: 29.3 µM, P: 12.9 µM)

* * *

experiment: Hydrogen peroxide scavenging (H2O2) assay; settings: phosphate buffer pH 7.4, 230 nm, 10 min; L-ascorbic acid standard; read-out: IC50 ± SEM (hydrogen peroxide assay)
assay_metric: IC50 (µM)

# annotated cases, reported IC50 shown
{"compound": "COc1ccc([C@@H]2CC(=O)c3c(OC)cc(OC(=O)c4ccccc4S)cc3O2)cc1OC [HET2]", "unit_text": "µM", "IC50": 8.55}
{"compound": "COc1ccc([C@@H]2CC(=O)c3c(O)cc(O)cc3O2)cc1O [Hesperitin]", "unit_text": "µM", "IC50": 14.4}

(1) COc1ccc([C@@H]2CC(=O)c3c(OC)cc(OC(=O)/C=C/c4ccc(O)c(O)c4)cc3O2)cc1OC [HET4]
(2) COc1cc(C(=O)Oc2cc(OC)c3c(c2)O[C@H](c2ccc(OC)c(OC)c2)CC3=O)ccc1O [HET6]
Qu. When 1 and 2 are compared, which has the higher number for IC50? # answer = label of selected item
Ans. 2

(P) COc1ccc([C@@H]2CC(=O)c3c(OC)cc(OC(=O)C(O)c4ccccc4)cc3O2)cc1OC (stereo partly drawn) [HET3]
(Q) COc1ccc([C@@H]2CC(=O)c3c(OC)cc(OC(=O)c4cccnc4)cc3O2)cc1OC [HET5]
Qu. When P and Q are compared, which has the higher number for IC50? # answer = label of selected item
Ans. Q
(Q: 6.37 µM, P: 3.32 µM)
